Target: human PD-L1 expressed on cell surface (human, UniProt Q9NZQ7 19-290)
Sequence (Q9NZQ7 19-290 limits assumed): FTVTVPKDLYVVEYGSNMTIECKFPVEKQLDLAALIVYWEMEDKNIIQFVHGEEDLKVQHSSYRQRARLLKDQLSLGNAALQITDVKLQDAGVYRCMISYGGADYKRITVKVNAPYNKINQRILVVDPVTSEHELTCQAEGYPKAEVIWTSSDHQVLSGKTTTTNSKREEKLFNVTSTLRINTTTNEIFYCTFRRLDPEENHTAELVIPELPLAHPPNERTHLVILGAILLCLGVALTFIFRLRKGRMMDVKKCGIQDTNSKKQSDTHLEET
Assay: cell-based or functional assay
readoutType: Internalization (%), FACS, 0.5 µg/ml, 4 h
Quick reminder: number only, in %, skip the unit.

A selection of reference data follows.
{"binder": "74A9 (antibody, human IgG1, V domains shown) VH: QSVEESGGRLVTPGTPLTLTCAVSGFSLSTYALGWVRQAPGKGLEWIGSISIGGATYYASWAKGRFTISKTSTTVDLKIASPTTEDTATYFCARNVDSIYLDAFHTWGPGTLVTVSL VL: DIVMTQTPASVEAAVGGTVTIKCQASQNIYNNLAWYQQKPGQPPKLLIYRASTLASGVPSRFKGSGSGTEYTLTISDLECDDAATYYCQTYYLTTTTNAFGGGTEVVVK", "unitsText": "%", "readoutNumber": 12}
{"binder": "57F11 (antibody, human IgG1, V domains shown) VH: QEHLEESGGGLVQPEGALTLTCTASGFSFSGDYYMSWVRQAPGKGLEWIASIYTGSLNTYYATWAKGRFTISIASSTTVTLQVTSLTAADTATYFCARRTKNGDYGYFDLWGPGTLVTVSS VL: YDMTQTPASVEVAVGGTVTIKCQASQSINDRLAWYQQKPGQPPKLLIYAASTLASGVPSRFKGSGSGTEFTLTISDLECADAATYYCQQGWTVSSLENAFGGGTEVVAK", "unitsText": "%", "readoutNumber": 14.7}
{"binder": "28B3 (antibody, human IgG1, V domains shown) VH: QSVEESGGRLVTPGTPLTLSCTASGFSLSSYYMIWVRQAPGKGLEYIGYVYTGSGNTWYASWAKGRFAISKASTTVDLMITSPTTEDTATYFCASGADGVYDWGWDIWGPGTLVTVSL VL: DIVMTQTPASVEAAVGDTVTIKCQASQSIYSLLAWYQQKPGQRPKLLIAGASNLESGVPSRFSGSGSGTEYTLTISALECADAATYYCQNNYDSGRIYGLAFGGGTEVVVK", "unitsText": "%", "readoutNumber": 19.9}

73C8 (antibody, human IgG1, V domains shown) VH: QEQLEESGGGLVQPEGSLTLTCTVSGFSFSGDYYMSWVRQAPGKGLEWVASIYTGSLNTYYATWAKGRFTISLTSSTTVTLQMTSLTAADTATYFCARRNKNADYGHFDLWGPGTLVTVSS VL: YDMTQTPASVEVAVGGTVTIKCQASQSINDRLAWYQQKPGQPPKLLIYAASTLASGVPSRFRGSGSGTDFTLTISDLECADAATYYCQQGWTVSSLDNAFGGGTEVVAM has a reported Internalization (%), FACS, 0.5 µg/ml, 4 h of 23

62E6 (antibody, human IgG1, V domains shown) VH: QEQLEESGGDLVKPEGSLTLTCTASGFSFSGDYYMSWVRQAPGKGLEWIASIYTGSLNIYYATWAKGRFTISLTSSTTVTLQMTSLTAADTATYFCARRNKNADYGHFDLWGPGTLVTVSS VL: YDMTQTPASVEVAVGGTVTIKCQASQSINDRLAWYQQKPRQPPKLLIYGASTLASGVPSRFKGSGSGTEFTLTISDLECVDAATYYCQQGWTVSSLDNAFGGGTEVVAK has a reported Internalization (%), FACS, 0.5 µg/ml, 4 h of 24

57B10 (antibody, human IgG1, V domains shown) VH: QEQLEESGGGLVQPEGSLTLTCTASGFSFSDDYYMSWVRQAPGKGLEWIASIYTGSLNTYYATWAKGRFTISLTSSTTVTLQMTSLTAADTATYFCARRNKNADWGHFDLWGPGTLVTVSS VL: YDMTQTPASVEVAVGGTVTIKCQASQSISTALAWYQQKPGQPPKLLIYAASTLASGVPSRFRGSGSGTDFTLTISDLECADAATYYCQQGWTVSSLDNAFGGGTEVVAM has a reported Internalization (%), FACS, 0.5 µg/ml, 4 h of 21.7

27A2 (antibody, human IgG1, V domains shown) VH: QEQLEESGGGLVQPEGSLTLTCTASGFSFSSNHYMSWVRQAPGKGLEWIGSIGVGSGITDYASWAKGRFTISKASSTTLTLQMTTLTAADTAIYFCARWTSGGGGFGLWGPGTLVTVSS VL: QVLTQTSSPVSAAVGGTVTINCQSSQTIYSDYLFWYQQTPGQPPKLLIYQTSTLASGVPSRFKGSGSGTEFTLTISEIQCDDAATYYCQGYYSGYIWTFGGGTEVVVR has a reported Internalization (%), FACS, 0.5 µg/ml, 4 h of 14.7
